Target: IRAK4 (His-TEV-IRAK4) (Homo sapiens)
Construct: His (N); TEV cleavage site (N)
Sequence (Q9NWZ3 1-460): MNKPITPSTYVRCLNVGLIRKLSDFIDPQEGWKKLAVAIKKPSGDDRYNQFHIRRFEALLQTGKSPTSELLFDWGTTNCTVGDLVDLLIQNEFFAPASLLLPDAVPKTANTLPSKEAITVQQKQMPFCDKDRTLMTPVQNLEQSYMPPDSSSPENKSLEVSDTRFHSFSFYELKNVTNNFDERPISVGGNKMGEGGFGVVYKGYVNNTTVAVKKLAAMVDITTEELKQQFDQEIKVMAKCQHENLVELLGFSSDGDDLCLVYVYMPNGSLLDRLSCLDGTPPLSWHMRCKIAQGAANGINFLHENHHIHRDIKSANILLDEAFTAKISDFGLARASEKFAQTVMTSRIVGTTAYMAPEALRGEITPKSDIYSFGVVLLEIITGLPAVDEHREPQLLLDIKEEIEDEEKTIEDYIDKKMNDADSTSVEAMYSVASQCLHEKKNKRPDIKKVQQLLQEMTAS
Test: IRAK4 enzymatic assay
Conditions: human recombinant His-TEV-IRAK4, ATP 2 μM, STK1-biotin peptide 300 nM, 3 hours at 30° C., FlashPlate
List of IC50 values.

Worked set:
Cn1cc(-c2cccc(-c3ncc(-c4cnn([C@H]5CCC[C@H](N6CCOCC6=O)C5)c4)cn3)c2)cn1 (relative stereo) : < 100 nM
Cn1cc(-c2cccc(-c3ncc(-c4cnn([C@@H]5CCC[C@@H](NS(C)(=O)=O)C5)c4)cn3)c2)cn1 (single isomer, unassigned) : < 100 nM

Prompt line: // lookup IC50 for CN1CCCC(n2cc(-c3cnc(-c4cccc(-c5cnn(C)c5)c4)nc3)cn2)CC1=O (stereo not drawn)
Response line: < 100 nM
